assay: protein stability index of a GFP-peptide fusion (yeast GPS) (PSI 1-4); higher = more stable; sorted into four equal gates, so the index is relative within each strain; conditions: ubr1∆
measuredMetric: protein stability index
I only need the number, thanks.

Param item = NSKPVELKPVSLDNKTL [YJL041W/NSP1] ; retrieve measured protein stability index. 2.58

Query: protein stability index; subject: CNNINKGLKENDVAVEK [BRR2] 3.43

Could you share which protein stability index value was measured for RTLTAVHDKILEDLVFP [RPS7A] ? 3.25

Given the sequence PSYYGVRDTSPHGISVF [BRR2] , what is its reported protein stability index? 1.94

I have this sequence here, TCQILESGEDEAEFSLR [RRP46] , and I need its recorded protein stability index. 3.46

Consider the sequence QNPLPTRFEVELEFIQS [SOH1] and give its measured protein stability index. 2.83

Any idea what protein stability index was measured for TQIANAGASPMVNTQQP [PRE4] ? 2.82
